Catalogue of pIC50 values
test system: KB-VIN10 cells (overexpression of P-gp170/MDR); assay: In vitro cell growth inhibition, methylene blue dye assay, MDR-positive KB-VIN10 cells; format: cell-based, Human; details: Homo sapiens, KB-VIN10, 72 h, read-out: IC50 on the proliferation of cells, KB-VIN10
pIC50: −log10 of the molar value.

Compound	pIC50
COc1cc(C(=O)c2ccc3c(N)c(OC)ccc3n2)cc(OC)c1OC [Compound 15]	9.70
COc1cc(C(=O)c2ccnc3ccccc23)cc(OC)c1OC [Compound 7, 4-(3′,4′,5′-trimethoxybenzoyl)quinoline]	5.66
COc1ccc2nc(C(=O)c3cc(OC)c(OC)c(OC)c3)ccc2c1 [Compound 12]	7.67

---

Catalogue of pIC50 values
tested on: non-small-cell lung carcinoma H460 cells; assay: In vitro cell growth inhibition, methylene blue dye assay, H460 cells; type: cell-based, Human; settings: Homo sapiens, NCI-H460; H460 cells, 72 hours, mean ± SD; read-out: IC50 on the proliferation of cells, H460
pIC50: −log10 of the molar value.

Structure Smiles String	pIC50
COc1cc(C(=O)c2ccc3ccccc3n2)cc(OC)c1OC	6.74
COc1cc(C(=O)c2ccc3c(ccc[n+]3[O-])c2)cc(OC)c1OC	5.96
COc1ccc2cc(C(=O)c3cc(OC)c(OC)c(OC)c3)ccc2n1	6.59

---

test system: colchicine-binding site of tubulin; test: Tubulin competition-binding scintillation proximity assay ([3H]colchicine); conditions: 1 μM inhibitor; Tubulin at 1 μM; [3H]colchicine at 5 μM
Assay Endpoint: Inhibition of [3H]colchicine binding (% ± SD), 1 μM inhibitor (%)

Molecule	Result Unit	Reported Value
COc1cc(C(=O)c2ccc3c(N)c(OC)ccc3n2)cc(OC)c1OC [Compound 15]	%	90
COc1ccc2nc(C(=O)c3cc(OC)c(OC)c(OC)c3)ccc2c1 [Compound 12]	%	40
COc1cc(C(=O)c2ccc3ncccc3c2)cc(OC)c1OC [Compound 9, 6-(3′,4′,5′-trimethoxybenzoyl)quinoline]	%	51
COc1ccc(/C=C\c2cc(OC)c(OC)c(OC)c2)cc1O [Compound 1, combretastatin A-4, reference compound]	%	87
